system: NCI-H2126; assay: relative viability (nuclei count vs DMSO), 5 days (fraction); higher = more cells survive; conditions: first compound 1.265 µM
Entries and their measured relative viability follow.
result type: relative viability

[[record]]
compound = "Clc1ccc(Nc2nnc(Cc3ccncc3)c3ccccc23)cc1 [Vatalanib] + O=C(CCCCCCC(=O)Nc1ccccc1)NO [Vorinostat] (partner 1 µM)"
observed_measurement = 0.766

[[record]]
compound = "Clc1ccc(Nc2nnc(Cc3ccncc3)c3ccccc23)cc1 [Vatalanib] + CC1(C)CCC(c2ccc(Cl)cc2)=C(CN2CCN(c3ccc(C(=O)NS(=O)(=O)c4ccc(N[C@H](CCN5CCOCC5)CSc5ccccc5)c(S(=O)(=O)C(F)(F)F)c4)cc3)CC2)C1 [Navitoclax] (partner 0.5 µM)"
observed_measurement = 0.801

[[record]]
compound = "COc1cc(N2CCC(C(N)=O)CC2)ccc1Nc1nc(N)c(Cl)c(Nc2ccccc2S(=O)(=O)C(C)C)n1 [HG-5-88-01] + Cc1cc(Nc2cc(N3CCN(C)CC3)nc(Sc3ccc(NC(=O)C4CC4)cc3)n2)n[nH]1 [Tozasertib] (partner 0.1 µM)"
observed_measurement = 0.467

[[record]]
compound = "Clc1ccc(Nc2nnc(Cc3ccncc3)c3ccccc23)cc1 [Vatalanib] + CC(=O)c1c(C)c2cnc(Nc3ccc(N4CCNCC4)cn3)nc2n(C2CCCC2)c1=O [Palbociclib] (partner 0.5 µM)"
observed_measurement = 0.335

[[record]]
compound = "Clc1ccc(Nc2nnc(Cc3ccncc3)c3ccccc23)cc1 [Vatalanib] + Cc1nc(NC(=O)N2CCC[C@H]2C(N)=O)sc1-c1ccnc(C(C)(C)C(F)(F)F)c1 [Alpelisib] (partner 2 µM)"
observed_measurement = 0.725

[[record]]
compound = "Clc1ccc(Nc2nnc(Cc3ccncc3)c3ccccc23)cc1 [Vatalanib] + COc1cccc2cc(-c3nc([C@H]4CC[C@H](C(=O)O)CC4)n4ncnc(N)c34)[nH]c12 [OSI-027] (partner 0.5 µM)"
observed_measurement = 0.62

[[record]]
compound = "Clc1ccc(Nc2nnc(Cc3ccncc3)c3ccccc23)cc1 [Vatalanib] + N=C(N)NC(=N)NCCc1ccccc1 [Phenformin] (partner 250 µM)"
observed_measurement = 0.487


###

test system: NCI-H2023; experiment: relative viability (nuclei count vs DMSO), 5 days (fraction); higher = more cells survive; conditions: first compound 0.1265 µM
result type: relative viability

[[record]]
molecule = "COc1cc(N2CCC(C(N)=O)CC2)ccc1Nc1nc(N)c(Cl)c(Nc2ccccc2S(=O)(=O)C(C)C)n1 [HG-5-88-01] + Nc1ncn([C@H]2C[C@H](O)[C@@H](CO)O2)c(=O)n1 [Decitabine] (partner 2 µM)"
result_type = "relative viability"
observed_measurement = 0.244

[[record]]
molecule = "C[C@@H]1CN(CC(=O)Nc2ccc3c(c2)Cc2cccc(-c4cc(=O)cc(N5CCOCC5)o4)c2S3)C[C@H](C)O1 + COc1cccc2cc(-c3nc([C@H]4CC[C@H](C(=O)O)CC4)n4ncnc(N)c34)[nH]c12 [OSI-027] (partner 0.5 µM)"
result_type = "relative viability"
observed_measurement = 0.387

[[record]]
molecule = "C[C@@H]1CN(CC(=O)Nc2ccc3c(c2)Cc2cccc(-c4cc(=O)cc(N5CCOCC5)o4)c2S3)C[C@H](C)O1 + CC(=O)Nc1cccc(-n2c(=O)n(C3CC3)c(=O)c3c(Nc4ccc(I)cc4F)n(C)c(=O)c(C)c32)c1 [Trametinib] (partner 0.02 µM)"
result_type = "relative viability"
observed_measurement = 0.507

[[record]]
molecule = "Clc1ccc(Nc2nnc(Cc3ccncc3)c3ccccc23)cc1 [Vatalanib] + CC(=O)Nc1cccc(-n2c(=O)n(C3CC3)c(=O)c3c(Nc4ccc(I)cc4F)n(C)c(=O)c(C)c32)c1 [Trametinib] (partner 0.02 µM)"
result_type = "relative viability"
observed_measurement = 0.529

[[record]]
molecule = "COc1cc(N2CCC(C(N)=O)CC2)ccc1Nc1nc(N)c(Cl)c(Nc2ccccc2S(=O)(=O)C(C)C)n1 [HG-5-88-01] + COc1cc2c(Oc3ccc(NC(=O)C4(C(=O)Nc5ccc(F)cc5)CC4)cc3F)ccnc2cc1OCCCN1CCOCC1 [Foretinib] (partner 0.25 µM)"
result_type = "relative viability"
observed_measurement = 0.899

[[record]]
molecule = "C[C@@H]1CN(CC(=O)Nc2ccc3c(c2)Cc2cccc(-c4cc(=O)cc(N5CCOCC5)o4)c2S3)C[C@H](C)O1 + CC1(C)CCC(c2ccc(Cl)cc2)=C(CN2CCN(c3ccc(C(=O)NS(=O)(=O)c4ccc(N[C@H](CCN5CCOCC5)CSc5ccccc5)c(S(=O)(=O)C(F)(F)F)c4)cc3)CC2)C1 [Navitoclax] (partner 0.5 µM)"
result_type = "relative viability"
observed_measurement = 0.921

[[record]]
molecule = "C[C@@H]1CN(CC(=O)Nc2ccc3c(c2)Cc2cccc(-c4cc(=O)cc(N5CCOCC5)o4)c2S3)C[C@H](C)O1 + CS(=O)(=O)CCNCc1ccc(-c2ccc3ncnc(Nc4ccc(OCc5cccc(F)c5)c(Cl)c4)c3c2)o1 [Lapatinib] (partner 2 µM)"
result_type = "relative viability"
observed_measurement = 0.793

[[record]]
molecule = "Clc1ccc(Nc2nnc(Cc3ccncc3)c3ccccc23)cc1 [Vatalanib] + C[C@@H](Oc1cc(-c2cnn(C3CCNCC3)c2)cnc1N)c1c(Cl)ccc(F)c1Cl [Crizotinib] (partner 1 µM)"
result_type = "relative viability"
observed_measurement = 0.667

[[record]]
molecule = "Clc1ccc(Nc2nnc(Cc3ccncc3)c3ccccc23)cc1 [Vatalanib] + CCNC(=O)c1noc(-c2cc(C(C)C)c(O)cc2O)c1-c1ccc(CN2CCOCC2)cc1 [Luminespib] (partner 0.01 µM)"
result_type = "relative viability"
observed_measurement = 0.66

[[record]]
molecule = "COc1cc(N2CCC(C(N)=O)CC2)ccc1Nc1nc(N)c(Cl)c(Nc2ccccc2S(=O)(=O)C(C)C)n1 [HG-5-88-01] + Nc1nc2[nH]cc(CCc3ccc(C(=O)N[C@@H](CCC(=O)O)C(=O)O)cc3)c2c(=O)[nH]1 [Pemetrexed] (partner 0.2 µM)"
result_type = "relative viability"
observed_measurement = 0.23

[[record]]
molecule = "Clc1ccc(Nc2nnc(Cc3ccncc3)c3ccccc23)cc1 [Vatalanib] + COc1cccc2cc(-c3nc([C@H]4CC[C@H](C(=O)O)CC4)n4ncnc(N)c34)[nH]c12 [OSI-027] (partner 0.5 µM)"
result_type = "relative viability"
observed_measurement = 0.366

[[record]]
molecule = "C[C@@H]1CN(CC(=O)Nc2ccc3c(c2)Cc2cccc(-c4cc(=O)cc(N5CCOCC5)o4)c2S3)C[C@H](C)O1 + CCNC(=O)c1noc(-c2cc(C(C)C)c(O)cc2O)c1-c1ccc(CN2CCOCC2)cc1 [Luminespib] (partner 0.01 µM)"
result_type = "relative viability"
observed_measurement = 0.75

[[record]]
molecule = "COc1cc(N2CCC(C(N)=O)CC2)ccc1Nc1nc(N)c(Cl)c(Nc2ccccc2S(=O)(=O)C(C)C)n1 [HG-5-88-01] + CC(=O)Nc1cccc(-n2c(=O)n(C3CC3)c(=O)c3c(Nc4ccc(I)cc4F)n(C)c(=O)c(C)c32)c1 [Trametinib] (partner 0.02 µM)"
result_type = "relative viability"
observed_measurement = 0.535

[[record]]
molecule = "COc1cc(N2CCC(C(N)=O)CC2)ccc1Nc1nc(N)c(Cl)c(Nc2ccccc2S(=O)(=O)C(C)C)n1 [HG-5-88-01] + CS(=O)(=O)CCNCc1ccc(-c2ccc3ncnc(Nc4ccc(OCc5cccc(F)c5)c(Cl)c4)c3c2)o1 [Lapatinib] (partner 2 µM)"
result_type = "relative viability"
observed_measurement = 1.32

[[record]]
molecule = "C[C@@H]1CN(CC(=O)Nc2ccc3c(c2)Cc2cccc(-c4cc(=O)cc(N5CCOCC5)o4)c2S3)C[C@H](C)O1 + C[C@@H](Oc1cc(-c2cnn(C3CCNCC3)c2)cnc1N)c1c(Cl)ccc(F)c1Cl [Crizotinib] (partner 1 µM)"
result_type = "relative viability"
observed_measurement = 0.634

[[record]]
molecule = "Clc1ccc(Nc2nnc(Cc3ccncc3)c3ccccc23)cc1 [Vatalanib] + Cc1cc(Nc2cc(N3CCN(C)CC3)nc(Sc3ccc(NC(=O)C4CC4)cc3)n2)n[nH]1 [Tozasertib] (partner 0.1 µM)"
result_type = "relative viability"
observed_measurement = 0.377

